test_system: SARS-CoV-2 RBD (residues 331-550 of spike from BetaCoV/Wuhan-Hu-1/2019, accession number MN908947) (SARS-CoV-2 Wuhan-Hu-1, UniProt P0DTC2 331-550)
assay_procedure: BLI
Quick list: pKd per entry.
Scale explanation: pKd corresponds to minus log10 of a concentration expressed in moles per litre.

Below, each entry is followed by its recorded pKd result.
Q: I have this binder here, S2X259 variant antibody, VH SEQ ID NO 408 / VL SEQ ID NO 444 (antibody, V domains shown) VH: QVQLVQSGAEVKKPGSSVKVSCKASGGIFNTYTISWVRQAPGQGLEWMGRIILMSGMANYAQKIQGRVTITADKSTSTAYMELTSLRSDDTAVYYCARGFNGNYYGWGDDDAFDISGQGTLVTVYS VL: QTVLTQPPSVSGAPGQRVTISCTGSNSNIGAGYDVHWYQQLPGTAPKLLIYGNSNRPSGVPDRFSGSKSGTSASLAITGLQAEDEADYYCQSYDSSLSGPNWVFGGGTKLTVL , and I need its recorded pKd.
A: 10.19

Q: Ok, now S2X259 variant antibody, VH SEQ ID NO 408 / VL SEQ ID NO 443 (antibody, V domains shown) VH: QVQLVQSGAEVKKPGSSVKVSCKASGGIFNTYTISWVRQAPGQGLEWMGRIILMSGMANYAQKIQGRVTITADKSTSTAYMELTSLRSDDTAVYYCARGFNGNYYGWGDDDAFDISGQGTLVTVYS VL: QTVLTQPPSVSGAPGQRVTISCTGSNSNIGAGYDVHWYQQLPGTAPKLLIAGNSNRPSGVPDRFSGSKSGTSASLAITGLQAEDEADYYCQSYDSSLSGPNWVFGGGTKLTVL
A: 10.08

More entries:
Q: I have this binder here, S2X259 variant antibody, VH SEQ ID NO 446 / VL SEQ ID NO 412 (antibody, V domains shown) VH: QVQLVQSGAEVKKPGSSVKVSCKASGGIFNTYTISWVRQAPGQGLEWMGRIILISGIANYAQKIQGRVTITADKSTSTAYMELTSLRSDDTAVYYCARGFNGNYYGWGDDDAFDISGQGTLVTVYS VL: QTVLTQPPSVSGAPGQRVTISCTGSNSNIGAGYDVHWYQQLPGTAPKLLICGNSNRPSGVPDRFSGSKSGTSASLAITGLQAEDEADYYCQSYDSSLSGPNWVFGGGTKLTVL , and I need its recorded pKd.
A: 9.24
